# Tested on: T-47D breast
# ASSAY_NAME: NCI-60 one-dose screen, 48 h
# STATED_CONDITIONS: 10 µM unless noted
About 83,000 compounds went through this panel and 20% of them were active in at least one assay; those are over-represented in the sample as a whole. Active and inactive are the calls of the source. Rule for the calls: active = growth percent below 10; inactive = the rest.
Classes used: True (active), False (inactive)

[[record]]
molecule = "CCCCN1C(=O)/C(=c2\\sc3n(c2=O)C2C(NN=3)N(CC)C(=O)N2CC)c2cc(Cl)ccc21 (centres undefined)"
class_label = "False"

[[record]]
molecule = "COc1ccc(-c2nc3ccc(-c4nnc(SCC(=O)Nc5ccc(C(C)=O)cc5)o4)cc3[nH]2)cc1"
class_label = "False"

[[record]]
molecule = "COc1cccc(OC)c1-c1nnn(C)c1C(=S)N1CCN(c2ccc([N+](=O)[O-])cc2Cl)CC1"
class_label = "False"

[[record]]
molecule = "Nc1cc(-c2c[nH]c3ccc(F)cc23)nc2cc(-c3c[nH]c4ccc(F)cc34)nn12"
class_label = "False"

[[record]]
molecule = "Clc1ccc2oc3c(NCCCn4ccnc4)c4ccccc4nc3c2c1"
class_label = "False"

[[record]]
molecule = "Cc1c(NC(=O)CSc2nc3sc4c(c3c(=O)n2-c2ccc(Cl)cc2)CCCC4)c(=O)n(-c2ccccc2)n1C"
class_label = "False"

[[record]]
molecule = "O=C(CSc1nc2sc3c(c2c(=O)n1-c1ccc(Cl)cc1)CCCC3)N/N=C/c1ccc(F)cc1"
class_label = "False"

[[record]]
molecule = "CN(C)c1ccc(/C=c2\\sc3nc4ccccc4n3c2=O)cc1"
class_label = "False"

[[record]]
molecule = "NS(=O)(=O)c1ccc(Nc2nc(SCC(=O)c3ccc(Cl)cc3)nc3ccccc23)cc1"
class_label = "False"

[[record]]
molecule = "COc1cc(OC)c(C2SCC(=O)N2Nc2ncnc3ccccc23)cc1OC (centres undefined)"
class_label = "False"

[[record]]
molecule = "CCN1C(=S)N(CC)C2C1NN=C1SC(c3ccccc3)=CC(=O)N12 (centres undefined)"
class_label = "False"

[[record]]
molecule = "Clc1ccc(-c2cn3cc(Cc4ccc(Cl)c(Cl)c4)sc3n2)cc1"
class_label = "False"

[[record]]
molecule = "CCOC(=O)c1sc(N)c(C(=O)OCC)c1C"
class_label = "True"

[[record]]
molecule = "O=C(N/N=C/c1ccc(Br)s1)c1[nH]c2ccc(Br)cc2c1-c1ccccc1"
class_label = "False"

[[record]]
molecule = "O=C1c2c(c3c4cccnc4[nH]c3c3ccc4ccccc4c23)C(=O)N1CCO"
class_label = "False"

[[record]]
molecule = "COC(=O)C(Cc1ccccc1)NS(=O)(=O)/N=C1\\NC(=O)NC1=C(Cl)Cl (centres undefined)"
class_label = "False"

[[record]]
molecule = "Nc1c(C(=O)c2ccc(Br)cc2)oc2nc(-c3cnccn3)cc(-c3cccs3)c12"
class_label = "False"

[[record]]
molecule = "Clc1ccc(Cc2nnc3sc(-c4cccnc4)nn23)cc1"
class_label = "False"

[[record]]
molecule = "COc1ccc(-c2nn3c(-c4ccccc4F)nnc3s2)cc1"
class_label = "False"

[[record]]
molecule = "C#Cc1nc(C2=C(C)C(O)/C(=N/O)C2)cs1 (centres undefined)"
class_label = "False"

[[record]]
molecule = "COc1cc(-c2nc3ccc(-c4nnc(SCC(=O)Nc5ccc(C(=O)/C=C/c6ccc(Cl)cc6)cc5)o4)cc3[nH]2)cc(OC)c1OC"
class_label = "False"

[[record]]
molecule = "N[C@@H](Cc1cn(-c2c3ccccc3nc3ccccc23)nn1)C(=O)O"
class_label = "False"

[[record]]
molecule = "COc1ccc(/C=N/Nc2ccnc3cc(Cl)ccc23)cc1Cl"
class_label = "True"

[[record]]
molecule = "COC(=O)C1CN(S(=O)(=O)/N=C2\\NC(=O)NC2=C(Cl)Cl)C1"
class_label = "False"

[[record]]
molecule = "NC(=O)c1c(NC(=O)c2ccc(C3CCCCC3)cc2)sc2c1CCC(=O)C2"
class_label = "True"

[[record]]
molecule = "COc1ccc(NC2=C(Cl)C(=O)C(C)=C(C)C2=O)cc1OC"
class_label = "False"

[[record]]
molecule = "Cc1ccc2ccc3ccc(C)nc3c2n1.Cc1ccc2ccc3ccc(C)nc3c2n1.Oc1c(Cl)cc(Cl)c2ccc(CN3CCCCC3)nc12.[Ru]"
class_label = "True"

[[record]]
molecule = "CN(C)CCCNc1c2ccc(Cl)cc2nc2c1oc1ccccc12"
class_label = "False"

[[record]]
molecule = "Cc1ccccc1NC(=O)/C=C/c1ccc(OCCOc2ccc3c(C)cc(=O)oc3c2)cc1"
class_label = "False"

[[record]]
molecule = "COc1ccc([C@@H]2c3[nH]c4ccccc4c3CC3C(=O)N(C4CCN(Cc5c(F)cccc5F)CC4)CC(=O)N32)c(OC)c1 (some centres undefined)"
class_label = "False"

[[record]]
molecule = "O=C(CCCN1C(=O)/C(=C/c2ccccc2F)SC1=S)N1CCOCC1"
class_label = "False"

[[record]]
molecule = "CSc1ccc2c(c1)N(C(=O)/C(C#N)=C/c1c[nH]c3ccccc13)c1ccccc1S2"
class_label = "False"

[[record]]
molecule = "Clc1ccc2oc3c(OCCCn4ccnc4)c4ccccc4nc3c2c1"
class_label = "False"

[[record]]
molecule = "Fc1ccc(-c2cc3nc(C(Cl)Cl)nc(-c4ccccc4)n3n2)cc1"
class_label = "False"

[[record]]
molecule = "CS(=O)(=O)c1ccc(-c2nc3ccccn3c2C=Nc2ccc(Cl)cc2)cc1"
class_label = "False"

[[record]]
molecule = "Nc1nc(N)c2c(n1)NC(c1ccc(F)cc1)CC(c1ccc(Nc3nc(NCCO)nc(Nc4ccc(Cl)cc4)n3)cc1)=N2 (centres undefined)"
class_label = "False"

[[record]]
molecule = "COc1cc2nc(-c3ccc(C)cc3)cc(OCCCNCC3CCCO3)c2cc1OC (centres undefined)"
class_label = "False"

[[record]]
molecule = "Cc1nc(-c2cc3ccccc3oc2=O)ccc1C(=O)/C=C/c1ccc(Cl)c(Cl)c1"
class_label = "False"

[[record]]
molecule = "N#Cc1c(-c2ccc(Cl)cc2)nc2c(-c3ccccc3)c(Nc3ccccc3)nn2c1N"
class_label = "False"

